biological target: Neuronal acetylcholine receptor subunit alpha-7 (Rattus norvegicus, UniProt Q05941); test: Displacement of [125I]-alpha-bungarotoxin from alpha7 nicotinic acetylcholine receptor in Wistar rat frontal cortex by gamma counting
Sequence (Q05941 whole entry): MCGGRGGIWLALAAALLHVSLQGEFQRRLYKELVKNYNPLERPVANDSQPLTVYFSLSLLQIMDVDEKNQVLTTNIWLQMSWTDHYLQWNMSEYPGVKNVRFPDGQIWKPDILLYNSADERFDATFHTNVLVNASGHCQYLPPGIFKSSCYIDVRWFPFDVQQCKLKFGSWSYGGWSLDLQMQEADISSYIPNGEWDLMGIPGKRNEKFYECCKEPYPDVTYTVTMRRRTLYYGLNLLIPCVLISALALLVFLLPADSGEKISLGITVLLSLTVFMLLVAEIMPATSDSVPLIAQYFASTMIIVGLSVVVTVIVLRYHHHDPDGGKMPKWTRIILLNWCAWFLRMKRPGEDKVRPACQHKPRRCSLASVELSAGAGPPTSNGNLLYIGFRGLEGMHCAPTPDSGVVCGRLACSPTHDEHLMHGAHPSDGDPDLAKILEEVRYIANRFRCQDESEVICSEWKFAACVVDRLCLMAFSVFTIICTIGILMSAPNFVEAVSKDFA

# COMPOUND_SMILES, UNIT_SPEC, LIMIT_SIGN, Ki
data = [
    ("CN1[C@@H]2CC[C@H]1C[C@@H](NC(=O)c1ccc3sccc3c1)C2", "nM", "=", 108),
    ("CN1[C@@H]2CC[C@H]1C[C@@H](NC(=O)c1ccc(-c3ccco3)s1)C2", "nM", "=", 14),
    ("CN1[C@@H]2CC[C@H]1C[C@@H](NC(=O)c1ccc(Br)s1)C2", "nM", "=", 78),
    ("CN1[C@@H]2CC[C@H]1C[C@@H](NC(=O)c1ccc(-c3cccs3)s1)C2", "nM", "=", 12),
    ("CN1[C@@H]2CC[C@H]1C[C@@H](NC(=O)c1cccs1)C2", "nM", ">", 1000),
    ("CN1[C@@H]2CC[C@H]1C[C@@H](NC(=O)c1ccc3occc3c1)C2", "nM", "=", 133),
    ("CN1[C@@H]2CC[C@H]1C[C@@H](NC(=O)c1ccc(Cl)cc1)C2", "nM", ">", 1000),
]

// provenance: ChEMBL document CHEMBL3286186
